molecular target: REFACTO® (recombinant factor VIII-like polypeptide consisting of amino acids 1-743 and 1638 through 2332 of human factor VIII) (human) (UniProt P00451); assay: phage ELISA, ratio with target to without target
Sequence (P00451 20-762, chain 1 of 2): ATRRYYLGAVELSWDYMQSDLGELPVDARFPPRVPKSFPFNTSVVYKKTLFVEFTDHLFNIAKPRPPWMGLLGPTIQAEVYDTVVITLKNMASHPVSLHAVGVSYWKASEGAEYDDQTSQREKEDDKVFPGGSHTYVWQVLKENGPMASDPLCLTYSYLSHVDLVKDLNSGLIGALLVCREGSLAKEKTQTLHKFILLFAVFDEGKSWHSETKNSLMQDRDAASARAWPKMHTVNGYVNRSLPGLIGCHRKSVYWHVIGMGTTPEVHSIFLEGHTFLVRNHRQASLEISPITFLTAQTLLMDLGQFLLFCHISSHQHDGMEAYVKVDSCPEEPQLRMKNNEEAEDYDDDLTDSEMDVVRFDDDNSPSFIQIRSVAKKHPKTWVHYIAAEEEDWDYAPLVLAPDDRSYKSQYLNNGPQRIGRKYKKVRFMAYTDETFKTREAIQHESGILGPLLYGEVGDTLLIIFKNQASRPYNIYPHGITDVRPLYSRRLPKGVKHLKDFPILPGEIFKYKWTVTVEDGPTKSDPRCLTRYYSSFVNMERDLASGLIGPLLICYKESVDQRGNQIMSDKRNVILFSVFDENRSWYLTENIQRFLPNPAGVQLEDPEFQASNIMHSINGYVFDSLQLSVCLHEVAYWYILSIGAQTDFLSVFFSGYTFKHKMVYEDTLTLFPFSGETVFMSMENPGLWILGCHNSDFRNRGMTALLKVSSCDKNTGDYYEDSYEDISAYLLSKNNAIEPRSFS
Sequence (P00451 1657-2351, chain 2 of 2): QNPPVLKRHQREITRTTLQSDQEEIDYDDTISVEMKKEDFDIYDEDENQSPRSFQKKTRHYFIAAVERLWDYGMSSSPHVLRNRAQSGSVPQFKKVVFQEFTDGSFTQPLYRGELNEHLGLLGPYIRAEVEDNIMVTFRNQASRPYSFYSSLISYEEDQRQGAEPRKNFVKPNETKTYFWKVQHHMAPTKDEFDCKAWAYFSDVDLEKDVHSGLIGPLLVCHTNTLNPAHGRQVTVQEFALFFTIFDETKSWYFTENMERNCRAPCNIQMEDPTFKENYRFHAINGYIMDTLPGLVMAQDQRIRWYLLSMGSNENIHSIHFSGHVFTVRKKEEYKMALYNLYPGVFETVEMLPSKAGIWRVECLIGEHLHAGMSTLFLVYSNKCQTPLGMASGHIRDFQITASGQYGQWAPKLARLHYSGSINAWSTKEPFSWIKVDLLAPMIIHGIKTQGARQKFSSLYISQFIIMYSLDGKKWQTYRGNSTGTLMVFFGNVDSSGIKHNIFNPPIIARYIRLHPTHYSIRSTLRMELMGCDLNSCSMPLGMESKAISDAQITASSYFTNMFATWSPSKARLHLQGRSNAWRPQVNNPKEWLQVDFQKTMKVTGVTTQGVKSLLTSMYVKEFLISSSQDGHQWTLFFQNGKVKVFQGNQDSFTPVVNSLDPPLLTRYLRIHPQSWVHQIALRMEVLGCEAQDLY
Here, each record is paired with measured R (ELISA score with target / ELISA score without target) data.
Please give the numeric answer without any surrounding text.

Example entries and their recorded answers appear below.
State, in one line, measured R (ELISA score with target / ELISA score without target) of HLCFAWFRPCDA [TN8 phage isolate 12 (SEQ ID NO: 17)]
8

State, in one line, measured R (ELISA score with target / ELISA score without target) of HPCGSWLRPCLH [TN8 phage isolate 10 (C10-TN8)]
16

---
State, in one line, measured R (ELISA score with target / ELISA score without target) of HPCGAWLRPCYN [TN8 phage isolate 08 (SEQ ID NO: 20)]
20

State, in one line, measured R (ELISA score with target / ELISA score without target) of FCWVFNWVHCD [TN9/1 phage isolate … (SEQ ID NO: 75)]
14

State, in one line, measured R (ELISA score with target / ELISA score without target) of FCWVFAFDHCH [TN9 phage isolates 04 (B04-TN9) and 01 displaying Phe-Cys-Trp-Val-Phe-Ala-Phe-Asp-His-Cys-His]
24

State, in one line, measured R (ELISA score with target / ELISA score without target) of HSCGSWLFPCFA [TN7 phage isolate A06]
10

State, in one line, measured R (ELISA score with target / ELISA score without target) of FGCSWLFPCPF [TN7 phage isolate A08]
8

State, in one line, measured R (ELISA score with target / ELISA score without target) of FCWVFPFQHCA [TN9 phage isolate 09 (E09-TN9)]
24
